Test: Human HepG2 cell viability assay in 384 well format
Type: toxicity, cell-based
Set-up: dose 125 nL, time 70.5 hour; concentration not given beside the values
Conditions: HepG2 cells, read-out: Inhibition
readout_kind: cytotoxicity at 70.5 h (%)
Give just the number in %; leave the unit off.

molecule	unit_abbrev	reading
COC1CN(C(=O)Nc2ccccc2)CCC(=O)N(C)c2ccccc21 (centres undefined)	%	-0.759
CC(C)c1nc(CN2CCN(CC3CCCO3)CC2)cs1 (centres undefined)	%	-2.13
CC(C)(C)SCCN1CC(=O)N2CC[C@@H](O)C[C@H]2C1=O	%	-9.74
COCC(C)N(C)C(=O)NC1CCN(c2ncccn2)CC1 (centres undefined)	%	7.61
Cc1cnn(C2CN(CC(O)COc3ccc(C#N)cc3)C2)c1 (centres undefined)	%	-3.3
CC(=O)N[C@@H](CC(C)C)C(=O)N1CCC(n2cc(C(C)(C)N)nn2)CC1	%	-2.68
Cc1nccn1CCCC(=O)N1CCC(N(C)c2cccnn2)CC1	%	-7.52
CNC(=O)CCN(C)CC1(c2ccc(Br)cc2)CC1	%	-0.48
CN1CCCN(C(=O)c2cc(CN(C)CCc3ccccc3)on2)CC1	%	-10.4
CN(C)[C@@H]1CN(C(=O)Cc2cccs2)[C@@H]2CCCO[C@H]12	%	-5.81

Supply reported cytotoxicity at 70.5 h belonging to this molecule: `CN(CCCOc1ccccc1)C(=O)CN1CCc2cncnc2C1`
8.28

Tell me its cytotoxicity at 70.5 h given N#Cc1nccnc1N1CCC(OCCCc2ccccc2)C1 (centres undefined) as the entry.
-6.29

Give reported cytotoxicity at 70.5 h value for `Cc1ccc(CCCC(=O)N2CCC(CS(N)(=O)=O)CC2)s1`
-18.3

For the molecule CC(CCc1ccc(O)cc1)NC1CCN(C(=O)C(C)C)CC1 (centres undefined) , give its reported cytotoxicity at 70.5 h.
-11.4

---

cytotoxicity at 70.5 h values, listed per item
Test: Human HepG2 cell viability assay in 384 well format
Assay type: toxicity, cell-based
Design: dose 125 nL, time 70.5 hour; concentration not given beside the values
Settings: HepG2 cells, read-out: Inhibition
Give the value, in units of %, as a plain number.

Known results for molecules:
molecule	reading
CCn1c(CC2CCN(C(=O)C3CNCCO3)CC2)nn(C)c1=O (stereo unspecified)	-16.2
CCOC(=O)Cc1n[nH]c(-c2cncc(Br)c2)n1	7.76
COc1ccc(-n2cnnc2CC2CCNCC2)cc1	1.1
CCN(CC)c1ncccc1CNCc1ccc(Cl)s1	-7.77
CCO[C@H]1CN(C)C[C@@H]1NC(=O)c1c[nH]nc1C1CCCCC1	21.2

--- query ---
State its cytotoxicity at 70.5 h: `CCc1cccc2cc(CNCCOC)c(=O)[nH]c12`
21.7

---

Assay: Human HepG2 cell viability assay in 384 well format
Format: toxicity, cell-based
Design: dose 125 nL, time 70.5 hour; concentration not given beside the values
Details: HepG2 cells, read-out: Inhibition
readout_kind: cytotoxicity at 70.5 h (%)
Answer in %, number only, no unit symbol.

A selection of reference data follows.
molecule	unit_abbrev	cytotoxicity at 70.5 h
COc1cc(N[C@@H](Cc2ccccc2)C(N)=O)ncn1	%	-5.19
Cc1ccc2oc(C(=O)N3CCCC(n4nc(C)nc4C)C3)cc2n1 (stereo not given)	%	-9.11
CN(C)c1cncc(C2CCN(C(=O)CO)CC2)n1	%	-22.6
COc1c(C2CCCN2Cc2nnc(C3CC3)n2C)c(C)nn1C (stereo not given)	%	-5.73
CC(C)NC(=O)N1CCC2(CC1)Cc1ccccc1CN(C)C2=O	%	-2.79
Cc1nccc(N[C@H]2CN(C(=O)CN3CCCC3=O)C[C@@H]2C(C)C)n1	%	-19.5

Let us examine a further case.
Let me know recorded cytotoxicity at 70.5 h for `CC(=O)N1CCN(c2nc(C(F)(F)F)nc3sc(C)c(C)c23)CC1` , thanks.
-9.75
